molecular target: Glucagon receptor (Homo sapiens); test: Displacement of [125I]-glucagon from wild type human glucagon receptor expressed in CHO-K1 cells after 3 hrs by scintillation counting method; format: cell-based; details: read-out: IC50
Sequence (P47871 whole entry): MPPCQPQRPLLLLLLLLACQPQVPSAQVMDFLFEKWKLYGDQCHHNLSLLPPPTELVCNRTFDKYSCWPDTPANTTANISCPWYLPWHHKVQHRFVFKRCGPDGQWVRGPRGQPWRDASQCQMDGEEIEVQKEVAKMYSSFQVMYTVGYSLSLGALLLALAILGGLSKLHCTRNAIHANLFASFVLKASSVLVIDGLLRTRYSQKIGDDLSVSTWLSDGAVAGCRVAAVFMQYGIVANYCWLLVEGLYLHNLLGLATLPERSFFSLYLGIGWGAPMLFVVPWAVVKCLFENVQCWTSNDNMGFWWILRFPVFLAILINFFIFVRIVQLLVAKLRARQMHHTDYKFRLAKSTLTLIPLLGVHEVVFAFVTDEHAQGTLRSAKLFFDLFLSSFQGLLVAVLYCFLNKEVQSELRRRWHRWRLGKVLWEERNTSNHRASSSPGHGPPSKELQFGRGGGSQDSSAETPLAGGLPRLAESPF
METRIC: IC50 (µM)

# MOLECULE, OBSERVED
measured = [
    ("O=C(O)CCNC(=O)c1ccc2c(c1)CCC2n1nc(-c2cc(Cl)cc(Cl)c2)cc1-c1ccc2c(c1)OCCO2 (centres undefined)", 31.9),
    ("Cc1ccccc1-c1cc(-c2cc(Cl)cc(Cl)c2)nn1C1CCc2cc(C(=O)NCCC(=O)O)ccc21 (centres undefined)", 14.5),
    ("O=C(O)CCNC(=O)c1ccc2c(c1)CCC2n1nc(-c2cc(Cl)cc(Cl)c2)cc1-c1cccc2ccccc12 (centres undefined)", 5.9),
    ("O=C(O)CCNC(=O)c1ccc2c(c1)CCC2n1nc(-c2cc(Cl)cc(Cl)c2)cc1-c1ccc(F)cc1 (centres undefined)", 8.9),
]
